# System: MDA-MB-231 cells (triple negative breast cancer)
# testSummary: MTT cytotoxicity assay
# Type: cell-based
# testParameters: Homo sapiens, MDA-MB-231; MTT, 48 h
observedProperty: IC50 (µM)

INSERT INTO assay_data (compound, u, inequalitysign, resultvalue) VALUES
  ('NCCCNCCCCNCCCN1C(=O)c2cc(N)cc3cc(N)cc(c23)C1=O [11b]', 'µM', '>', 30),
  ('NCCCCNCCCCN1C(=O)c2cc(N)cc3cc(N)cc(c23)C1=O [7b]', 'µM', '>', 30),
  ('O=C1c2cc([N+](=O)[O-])cc3cc([N+](=O)[O-])cc(c23)C(=O)N1CCCCNCCCNC1CCCCC1 [5a]', 'µM', '=', 1.19),
  ('NCCCNCCCNCCCN1C(=O)c2cc(N)cc3cc(N)cc(c23)C1=O [11a]', 'µM', '=', 26);

---

# Tested on: MCF-7 cells (breast carcinoma)
# testSummary: MTT cytotoxicity assay
# Assay type: cell-based
# testParameters: Homo sapiens, MCF7; MTT, 48 h
pIC50: −log10 of the molar value.
observedProperty: pIC50

INSERT INTO results (compound, inequalitysign, resultvalue) VALUES
  ('O=C1c2cc([N+](=O)[O-])cc3cc([N+](=O)[O-])cc(c23)C(=O)N1CCCCNCCCNC1CCCCC1', '=', 5.64),
  ('NCCCNCCCNCCCN1C(=O)c2cc(N)cc3cc(N)cc(c23)C1=O [11a]', '=', 4.83),
  ('O=C1c2cc([N+](=O)[O-])cc3cc([N+](=O)[O-])cc(c23)C(=O)N1CCCCNCCCNC1CC1', '=', 5.87),
  ('NCCCNCCCCNCCCN1C(=O)c2cc(N)cc3cc(N)cc(c23)C1=O [11b]', '=', 4.59),
  ('Nc1cc2c3c(cc(N)cc3c1)C(=O)N(CCCCNCCCNC1CC1)C2=O', '=', 5.06),
  ('CN(C)CCN1C(=O)c2cccc3cc(N)cc(c23)C1=O [Amonafide, amonafide, reference compound]', '=', 5.23),
  ('NCCCCNCCCCN1C(=O)c2cc(N)cc3cc(N)cc(c23)C1=O', '<', 4.52),
  ('O=C1c2cc([N+](=O)[O-])cc3cc([N+](=O)[O-])cc(c23)C(=O)N1CCCCNCCCCNC1CCCCC1', '=', 5.90);

---

The entries below come with measured IC50 values attached.
# Test system: MDA-MB-231 cells (triple negative breast cancer)
# testSummary: MTT cytotoxicity assay
# Assay type: cell-based
# testParameters: Homo sapiens, MDA-MB-231; MTT, 48 h
observedProperty: IC50 (µM)

INSERT INTO assay_data (molecule, observedproperty, resultvalue) VALUES
  ('O=C1c2cc([N+](=O)[O-])cc3cc([N+](=O)[O-])cc(c23)C(=O)N1CCCCNCCCCNC1CCCCC1', 'IC50', 1.07),
  ('CN(C)CCN1C(=O)c2cccc3cc(N)cc(c23)C1=O [Amonafide, amonafide, reference compound]', 'IC50', 14.9),
  ('Nc1cc2c3c(cc(N)cc3c1)C(=O)N(CCCCNCCCNC1CC1)C2=O', 'IC50', 26.9),
  ('O=C1c2cc([N+](=O)[O-])cc3cc([N+](=O)[O-])cc(c23)C(=O)N1CCCCNCCCNC1CC1', 'IC50', 1.33);

---

Quick reference: SI (selectivity index) IC50 in HL-7702/IC50 in Snu-368 of the listed items.
# System: HL-7702 (normal liver cell)
# testSummary: MTT cytotoxicity on matched normal cells
# Type: cell-based
# Method: We incubated hepatic carcinoma (Snu-368 and Snu-739), breast carcinoma (MDA-MB-231 and MCF-7), cisplatin-sensitive lung cancer cells A549, and cisplatin-resistant lung cancer cells A549cisR in 96-well plates in a 5% CO2 atmosphere at 37°C for 24 h (5,000 cells/well). […] By using a Bio-Rad 680 microplate reader, the absorbance was measured at 570 nm and the IC50 values were calculated using the GraphPad Prism software based on three parallel experiments. […]
observedProperty: SI (selectivity index) IC50 in HL-7702/IC50 in Snu-368

INSERT INTO results (compound, measurementtarget, resultvalue) VALUES
  ('O=C1c2cc([N+](=O)[O-])cc3cc([N+](=O)[O-])cc(c23)C(=O)N1CCCCNCCCNC1CCCCC1', 'HL-7702 (normal liver cell)', 2.14),
  ('O=C1c2cc([N+](=O)[O-])cc3cc([N+](=O)[O-])cc(c23)C(=O)N1CCCCNCCCCNC1CCCCC1', 'HL-7702 (normal liver cell)', 2.78),
  ('CN(C)CCN1C(=O)c2cccc3cc(N)cc(c23)C1=O [Amonafide, amonafide, reference compound]', 'HL-7702 (normal liver cell)', 0.83),
  ('O=C1c2cc([N+](=O)[O-])cc3cc([N+](=O)[O-])cc(c23)C(=O)N1CCCCNCCCNC1CC1', 'HL-7702 (normal liver cell)', 5.21),
  ('N.N.[Cl][Pt][Cl] [Cisplatin, cisplatin, reference compound]', 'HL-7702 (normal liver cell)', 0.53);

---

# Tested on: Snu-739 cells (hepatic carcinoma)
# testSummary: MTT cytotoxicity assay
# Format: cell-based
# testParameters: MTT, 48 h
observedProperty: IC50 (µM)

INSERT INTO assay_data (compound, measurementtarget, resultvalue) VALUES
  ('N.N.[Cl][Pt][Cl] [Cisplatin, cisplatin, reference compound]', 'Snu-739 cells (hepatic carcinoma)', 10);
